Entry source: paper PMC8119466

target: recombinant PRL-3 (Homo sapiens, UniProt O75365); construct: 6xHis (N, cleaved yes); made in house; host or cells: E. coli One Shot BL21 Star; test: In vitro phosphatase assay (DiFMUP hydrolysis), PRL-3; assay type: biochemical; conditions: FDA-approved drug screen; compared to DMSO; further: test concentration or dose not given here
Sequence (O75365 whole entry): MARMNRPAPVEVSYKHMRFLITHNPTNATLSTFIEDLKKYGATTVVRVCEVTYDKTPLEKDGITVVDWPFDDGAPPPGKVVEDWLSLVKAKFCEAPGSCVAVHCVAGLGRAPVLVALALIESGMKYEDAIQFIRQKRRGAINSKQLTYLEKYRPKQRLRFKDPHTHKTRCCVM
Where a name gives a salt, the structure may show the parent alone.
OBSERVED_PROPERTY: % Phosphatase Activity (compared to DMSO) PRL-3 (%)

> print(dat)
                                   compound  observed.result
1  C[C@H](Oc1ccc(S(C)(=O)=O)cc1C(=O)N1CCN(c2ncc(C(F)(F)F)cc2F)CC1)C(F)(F)F               82
2  CN(C)CCCN1c2ccccc2Sc2ccc(Cl)cc21 [Chlorpromazine HCl]               81
3  CNC(=O)[C@H](Cc1c[nH]c2ccccc12)NC(=O)[C@@H](CC(=O)NO)CC(C)C               91
4  C[C@H](NC(=O)C(=O)Nc1ccccc1C(C)(C)C)C(=O)N[C@@H](CC(=O)O)C(=O)COc1c(F)c(F)cc(F)c1F               95
5  c1ccc2c(CC3=NCCN3)cccc2c1 [Naphazoline HCl]               83
6  COc1cc2ncnc(Nc3ccc(F)c(Cl)c3)c2cc1OCCCN1CCOCC1 [Gefitinib (ZD1839)]               77
7  COc1cc2nccc(Oc3ccc(NC(=O)C4(C(=O)Nc5ccc(F)cc5)CC4)cc3)c2cc1OC.O=C(O)C[C@H](O)C(=O)O [Cabozantinib malate (XL184)]               96

====

Overview of reported % Phosphatase Activity (compared to DMSO) PRL-1 across a group of compounds:
Target: recombinant PRL-1 (Homo sapiens, UniProt Q93096)
Construct: 6xHis (N, cleaved yes); made in house; host or cells: E. coli One Shot BL21 Star
Sequence (Q93096 1-173): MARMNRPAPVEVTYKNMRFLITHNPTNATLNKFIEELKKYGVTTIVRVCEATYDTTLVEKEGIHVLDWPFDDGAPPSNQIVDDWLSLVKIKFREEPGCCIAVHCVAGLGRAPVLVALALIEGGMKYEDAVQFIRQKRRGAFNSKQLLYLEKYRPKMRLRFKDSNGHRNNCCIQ
Experiment: In vitro phosphatase assay (DiFMUP hydrolysis), PRL-1; further: test concentration or dose not given here
Format: biochemical
Settings: FDA-approved drug screen; compared to DMSO
Structures can show the parent of a compound that is named as a salt.
OBSERVED_PROPERTY: % Phosphatase Activity (compared to DMSO) PRL-1 (%)

> print(dat)
                                   compound  readout.units  observed.result
1  CN(C)c1nc(N(C)C)nc(N(C)C)n1 [Altretamine]              %               89
2        O=c1[nH]c(=O)c2ccccc2o1 [Carsalam]              %               96
3  Cl.O=S(=O)(c1cccc2cnccc12)N1CCCNCC1 [Fasudil (HA-1077) HCl]              %              102
4  CC(C)(C)NC(=O)[C@H]1CC[C@H]2[C@@H]3CC[C@H]4NC(=O)C=C[C@]4(C)[C@H]3CC[C@]12C [Finasteride]              %               93
5  Nc1ncn([C@H]2C[C@H](O)[C@@H](CO)O2)c(=O)n1 [Decitabine]              %              114
6  CC(C)c1nc(CN(C)C(=O)N[C@H](C(=O)N[C@@H](Cc2ccccc2)C[C@H](O)[C@H](Cc2ccccc2)NC(=O)OCc2cncs2)C(C)C)cs1 [Ritonavir]              %              103
7  C#CCC(Cc1cnc2nc(N)nc(N)c2n1)c1ccc(C(=O)N[C@@H](CCC(=O)O)C(=O)O)cc1 (some centres unmarked) [Pralatrexate]              %             1180
8  Cc1cccc(Cc2c[nH]cn2)c1C [Detomidine HCl]              %               88

====

target: recombinant PRL-1 (Homo sapiens); construct: 6xHis (N, cleaved yes); made in house; host or cells: E. coli One Shot BL21 Star; assay: In vitro phosphatase assay (DiFMUP hydrolysis), PRL-1; assay type: biochemical; details: FDA-approved drug screen; compared to DMSO; further: test concentration or dose not given here
Structures can show the parent of a compound that is named as a salt.
Reported % Phosphatase Activity (compared to DMSO) PRL-1 by item:
OBSERVED_PROPERTY: % Phosphatase Activity (compared to DMSO) PRL-1 (%)

COMPOUND	OBSERVED_RESULT
CN1CCN(CCOc2cc(OC3CCOCC3)c3c(Nc4c(Cl)ccc5c4OCO5)ncnc3c2)CC1 [Saracatinib (AZD0530)]	99
O=C(O)c1cccnc1Nc1cccc(C(F)(F)F)c1 [Niflumic acid]	109
CCCCCCCCCCCC[N+](C)(C)CCOc1ccccc1 [Domiphen Bromide]	106
CCCCCCCN(CC)CCCC(O)c1ccc(NS(C)(=O)=O)cc1.CCCCCCCN(CC)CCCC(O)c1ccc(NS(C)(=O)=O)cc1.O=C(O)/C=C/C(=O)O (centres unmarked) [Ibutilide Fumarate]	100
Nc1ccn([C@@H]2O[C@H](CO)[C@@H](O)C2(F)F)c(=O)n1 [Gemcitabine]	109
Clc1ccc(CCC(Cn2ccnc2)Sc2c(Cl)cccc2Cl)cc1 (centres unmarked) [Butoconazole nitrate]	97
COc1cc([C@@H]2c3cc4c(cc3[C@@H](O[C@@H]3O[C@@H]5CO[C@@H](C)O[C@H]5[C@H](O)[C@H]3O)[C@H]3COC(=O)[C@H]23)OCO4)cc(OC)c1O [Etoposide]	90
CCC(=O)O[C@]1(C(=O)SCF)[C@H](C)C[C@H]2[C@@H]3C[C@H](F)C4=CC(=O)C=C[C@]4(C)[C@@]3(F)[C@@H](O)C[C@@]21C [Fluticasone propionate]	103
C[C@@H](CN1CC(=O)NC(=O)C1)N1CC(=O)NC(=O)C1.Cl [Dexrazoxane HCl (ICRF-187, ADR-529)]	97
CCCNCC(O)COc1ccccc1C(=O)CCc1ccccc1 (centres unmarked) [Propafenone HCl]	98
NC(=O)c1ncn([C@@H]2O[C@H](CO)[C@@H](O)[C@H]2O)c1N [Acadesine]	91
NC(=O)c1ncn([C@@H]2O[C@H](CO)[C@@H](O)[C@H]2O)n1 [Ribavirin]	105
CN1CCN(c2cc3c(cc2F)c(=O)c(C(=O)O)cn3-c2ccc(F)cc2)CC1 [Difloxacin HCl]	99
CCc1c(Cl)c(O)c(Cl)c(O)c1C(=O)O[C@H]1[C@H](O)[C@H](OC)[C@H](OC/C2=C\C=C\C[C@H](O)/C(C)=C/[C@H](CC)[C@@H](O[C@@H]3OC(C)(C)[C@@H](OC(=O)C(C)C)[C@H](O)[C@@H]3O)/C(C)=C/C(C)=C/C[C@@H]([C@@H](C)O)OC2=O)O[C@@H]1C [Fidaxomicin]	85

====

This listing pairs molecules with measured % Phosphatase Activity (compared to DMSO) PRL-2.
target: recombinant PRL-2 (Homo sapiens, UniProt Q12974); construct: 6xHis (N, cleaved yes); made in house; host or cells: E. coli One Shot BL21 Star; experiment: In vitro phosphatase assay (DiFMUP hydrolysis), PRL-2; assay type: biochemical; conditions: FDA-approved drug screen; compared to DMSO;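 further: PRL-2 activity read as DiFMUP hydrolysis after 20 min at room temperature with drug, enzyme first pre-reduced at 4 °C for 20 min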
Sequence (Q12974 whole entry): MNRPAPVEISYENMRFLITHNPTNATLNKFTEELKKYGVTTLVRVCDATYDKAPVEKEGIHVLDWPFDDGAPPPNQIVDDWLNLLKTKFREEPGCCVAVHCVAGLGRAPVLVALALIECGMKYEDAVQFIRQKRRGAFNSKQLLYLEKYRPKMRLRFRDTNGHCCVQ
OBSERVED_PROPERTY: % Phosphatase Activity (compared to DMSO) PRL-2 (%)

> print(dat)
                                   molecule  readout.units  observed.result
1                        CCCCCCc1ccc(O)cc1O              %               83
2  O=C(O)c1ccc2c(c1)nc(Nc1cccc(Cl)c1)c1ccncc12 [CX-4945 (Silmitasertib)]              %               81
3        O=C(O)P(=O)(O)O [Foscarnet Sodium]              %              109
4  CCN[C@H]1CN(CCCOC)S(=O)(=O)c2sc(S(N)(=O)=O)cc21 [Brinzolamide]              %              110
5  CC(C)NCC(O)c1ccc(O)c(O)c1.Cl (centres unmarked) [Isoprenaline HCl]              %              124

====

target: recombinant PRL-2 (Homo sapiens); construct: 6xHis (N, cleaved yes); made in house; host or cells: E. coli One Shot BL21 Star; assay: In vitro phosphatase assay (DiFMUP hydrolysis), PRL-2; type: biochemical; details: FDA-approved drug screen; compared to DMSO
Counter-ions that a name gives are not always drawn. Residues, ends and D or L forms follow the SMILES beside them.
Here the recorded % Phosphatase Activity (compared to DMSO) PRL-2 is given for each entry.
OBSERVED_PROPERTY: % Phosphatase Activity (compared to DMSO) PRL-2

COMPOUND	OBSERVED_RESULT
CC(=O)N1CCN(c2ccc(OCC3COC(Cn4ccnc4)(c4ccc(Cl)cc4Cl)O3)cc2)CC1 (stereo not shown)	89%
N.N.O=C([O-])C1(C(=O)[O-])CCC1.[Pt+2]	79%
CCOC(=O)OC(C)OC1=C(C(=O)Nc2ccccn2)N(C)S(=O)(=O)c2ccccc21 (stereo not shown)	114%
CN(C)CCc1c[nH]c2ccc(Cn3cncn3)cc12 [Rizatriptan Benzoate]	103%
FC(F)(F)c1ccc(CNc2ccc(Cc3c[nH]c4ncc(Cl)cc34)cn2)cn1	100%
COc1ccc2c(c1)c(CC(=O)OCC(=O)O)c(C)n2C(=O)c1ccc(Cl)cc1	121%
C#Cc1cccc(Nc2ncnc3cc(OCCOC)c(OCCOC)cc23)c1	110%
CCCCOC(=O)c1ccc(N)cc1	94%
CCn1cc(C(=O)O)c(=O)c2cnc(N3CCCC3)nc21	106%
CN(C)CCOC(c1ccc(Cl)cc1)c1ccccn1.O=C(O)/C=C\C(=O)O (stereo not shown) [ArbinoxaMine Maleate]	77%
CCCCc1ncc(/C=C(\Cc2cccs2)C(=O)O)n1Cc1ccc(C(=O)O)cc1 [Eprosartan Mesylate]	100%
COc1ccccc1OCC(O)COC(N)=O (stereo not shown)	91%
CCN(CC)CCOC(=O)C(c1ccccc1)c1ccccc1 [Adiphenine HCl]	101%
CNC[C@H](O)[C@@H](O)[C@H](O)[C@H](O)CO.CNC[C@H](O)[C@@H](O)[C@H](O)[C@H](O)CO.C[C@@H](O[C@H]1OCCN(Cc2nn(P(=O)(O)O)c(=O)[nH]2)[C@H]1c1ccc(F)cc1)c1cc(C(F)(F)F)cc(C(F)(F)F)c1 [Fosaprepitant dimeglumine salt]	94%
COC(=O)[C@H](Cc1ccccc1)NC(=O)[C@@H](N)CC(=O)O [Aspartame] (H-Asp-Phe-OMe)	95%
Cc1cncc(CN2CCC(=C3c4ccc(Cl)cc4CCc4cccnc43)CC2)c1.O=C(O)/C=C/C(=O)O [Rupatadine Fumarate]	100%
CN(CCOc1ccc(CC2SC(=O)NC2=O)cc1)c1ccccn1 (stereo not shown) [Rosiglitazone maleate]	113%
O=C(/C=C/c1cccc(S(=O)(=O)Nc2ccccc2)c1)NO	104%
OC(c1ccccc1)(c1ccccc1)C1CCNCC1	127%
NC[C@@H]1O[C@H](O[C@H]2[C@@H](O)[C@H](O[C@@H]3[C@@H](O)[C@H](N)C[C@H](N)[C@H]3O[C@H]3O[C@H](CO)[C@@H](O)[C@H](O)[C@H]3N)O[C@@H]2CO)[C@H](N)[C@@H](O)[C@@H]1O [Paromomycin Sulfate]	110%
Cc1onc(-c2ccccc2Cl)c1C(=O)N[C@@H]1C(=O)N2[C@@H]1SC(C)(C)[C@@H]2C(=O)O [Cloxacillin Sodium]	104%
C[N+](C)(C)CCCCCC[N+](C)(C)C [Hexamethonium Bromide]	89%
Cc1ncc([N+](=O)[O-])n1CC(C)O (stereo not shown)	102%
Cc1cc(/C=C/C#N)cc(C)c1Nc1ccnc(Nc2ccc(C#N)cc2)n1	116%
CN1CCN(C(c2ccccc2)c2ccccc2)CC1.Cl.Cl [Cyclizine 2HCl]	116%
CCN1CCN(C(=O)N[C@@H](C(=O)N[C@@H]2C(=O)N3[C@@H]2SC(C)(C)[C@@H]3C(=O)O)c2ccccc2)C(=O)C1=O [Piperacillin Sodium]	91%
C=C1[C@H](CO)[C@@H](O)C[C@@H]1n1cnc2c(=O)[nH]c(N)nc21 [Entecavir Hydrate]	92%
Cc1ccc(Cl)c(Nc2ccccc2C(=O)O)c1Cl [Meclofenamate Sodium]	104%
COc1cc2ncnc(Nc3ccc(F)c(Cl)c3)c2cc1NC(=O)/C=C/CN1CCCCC1	147%
Oc1c(Cl)cc(Cl)cc1Sc1cc(Cl)cc(Cl)c1O [Bithionol, reference compound]	80%
Cc1cn(-c2cc(NC(=O)c3ccc(C)c(Nc4nccc(-c5cnccn5)n4)c3)cc(C(F)(F)F)c2)cn1	83%
